Reported Maximum mean fluorescence intensity values are given for each entry in this list.
Target: T1, human CD19 on Raji cells (human, UniProt P15391 20-556)
T1 construct: whole, on cells
T1 sequence (looked up): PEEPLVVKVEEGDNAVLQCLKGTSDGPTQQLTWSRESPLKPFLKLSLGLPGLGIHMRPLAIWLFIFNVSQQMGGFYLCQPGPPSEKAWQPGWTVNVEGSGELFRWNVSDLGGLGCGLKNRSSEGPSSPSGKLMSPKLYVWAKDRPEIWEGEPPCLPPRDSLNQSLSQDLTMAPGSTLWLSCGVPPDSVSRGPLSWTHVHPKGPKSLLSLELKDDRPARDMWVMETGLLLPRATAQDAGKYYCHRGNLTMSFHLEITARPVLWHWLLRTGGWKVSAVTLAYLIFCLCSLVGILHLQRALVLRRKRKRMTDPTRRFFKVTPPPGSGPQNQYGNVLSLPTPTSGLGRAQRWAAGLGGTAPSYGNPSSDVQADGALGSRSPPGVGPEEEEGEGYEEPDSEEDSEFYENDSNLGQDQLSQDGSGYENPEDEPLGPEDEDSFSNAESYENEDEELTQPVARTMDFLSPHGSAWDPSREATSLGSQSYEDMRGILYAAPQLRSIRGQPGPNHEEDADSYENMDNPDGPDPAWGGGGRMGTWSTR
Assay: FACS on Raji cells
Give your answer as a number; write no unit.

F3.133.14 (antibody, human IgG1, V domains shown, human-murine chimeric antibody, human IgG1) VH: QVQLQQPGAELVMPGASVKLSCKASGYTFTNYWMHWVKQRPGQGLEWIGEIDPSDYYANYNQKFKGKATLTVDKSSSTAYMQLSSLTSEDSAVYYCARSHYYANSYNYWGQGTTLTVSS VL: EIELTQSPTTMAASPGEKITITCSASSSISSDYLHWYQQKPGFSPKLLIYRTSNLASGLPARFSGSGSGTSYSLTIGTMEAEDVATYYCQQGSSVPRMLTFGAGTKLELK ... 34400

# next binder below
q: Given the entry F4.35.5 (antibody, human IgG1, V domains shown, human-murine chimeric antibody, human IgG1) VH: EIQLQQSGPELVKPGASVKVSCKASGYAFTSYNMYWVKQSHGKSLEWIGYIDPYNGDTRYNQKFKGKATLTVDKSSSTAYMHLNSLTSEDSAVYYCTRSGTGRDYWGQGTTLTVSS VL: QIVLTQSPAIMSASPGEKVTMTCSASSSISYMFWFQQKPGSSPRLLIYDTSSLASGVPVRFSGSGSGTSYTLTISRMEAEDAATYYCQQWSNYPYTFGGGTKLEMK , report its measured Maximum mean fluorescence intensity.
a: 25000
